- system name: recombinant human LTA4 hydrolase (rhLTA4H) (Homo sapiens)
- Sequence (P09960 whole entry): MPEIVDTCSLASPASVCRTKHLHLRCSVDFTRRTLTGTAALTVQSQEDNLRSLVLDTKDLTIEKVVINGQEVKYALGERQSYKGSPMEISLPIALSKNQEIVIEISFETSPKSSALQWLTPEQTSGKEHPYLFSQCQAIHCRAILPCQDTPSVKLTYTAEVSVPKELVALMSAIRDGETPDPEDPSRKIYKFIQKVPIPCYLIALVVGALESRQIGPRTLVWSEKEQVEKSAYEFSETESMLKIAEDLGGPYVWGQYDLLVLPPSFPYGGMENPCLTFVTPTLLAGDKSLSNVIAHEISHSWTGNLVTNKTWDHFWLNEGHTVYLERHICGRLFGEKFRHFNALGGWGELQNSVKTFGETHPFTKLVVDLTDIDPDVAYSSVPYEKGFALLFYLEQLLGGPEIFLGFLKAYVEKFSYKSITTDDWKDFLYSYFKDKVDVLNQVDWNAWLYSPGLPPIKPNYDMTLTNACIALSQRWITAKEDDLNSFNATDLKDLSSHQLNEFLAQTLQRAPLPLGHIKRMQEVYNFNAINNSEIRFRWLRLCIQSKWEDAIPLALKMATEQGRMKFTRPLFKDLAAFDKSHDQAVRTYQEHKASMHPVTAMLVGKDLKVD
- test: Recombinant human LTA4 hydrolase assay for LTA4 hydrolase inhibitor activity
- experimental context: Recombinant Human LTA4 Hydrolase Assay IC50 LTA4H, recombinant hLTA4H
Listed compounds paired with reported IC50
quantity kind: IC50

compound | system name | quantity kind | measured
c1ccc(Cc2ccc(OCCN3CC4CCC3C4)cc2)cc1 (centres unmarked) | recombinant human LTA4 hydrolase (rhLTA4H) (Homo sapiens) | IC50 | 240 nM
Clc1cc(OCCN2CCCC2)ccc1Cc1ccccc1 | recombinant human LTA4 hydrolase (rhLTA4H) (Homo sapiens) | IC50 | 3000 nM
CC(CN1CCCCC1)Oc1ccc(Cc2ccccc2)cc1 (centres unmarked) | recombinant human LTA4 hydrolase (rhLTA4H) (Homo sapiens) | IC50 | 750 nM
c1ccc(Cc2ccc(OCCn3ccc4ncccc43)cc2)cc1 | recombinant human LTA4 hydrolase (rhLTA4H) (Homo sapiens) | IC50 | 970 nM
Fc1cc(OCCN2CCCC2)c(F)cc1Cc1ccccc1 | recombinant human LTA4 hydrolase (rhLTA4H) (Homo sapiens) | IC50 | 8000 nM
CCOC(=O)C1CCN(CCOc2ccc(Cc3ccccc3)cc2)CC1 | recombinant human LTA4 hydrolase (rhLTA4H) (Homo sapiens) | IC50 | 1770 nM
Fc1cccc(COc2ccc(OCCN3CCCC3)cc2)c1 | recombinant human LTA4 hydrolase (rhLTA4H) (Homo sapiens) | IC50 | 120 nM
CC(CN1CCCCCC1)Oc1ccc(Cc2ccccc2)cc1 (centres unmarked) | recombinant human LTA4 hydrolase (rhLTA4H) (Homo sapiens) | IC50 | 1750 nM
CC(=O)N1CCN(CC2Cc3cc(Cc4ccccc4)ccc3O2)CC1 (centres unmarked) | recombinant human LTA4 hydrolase (rhLTA4H) (Homo sapiens) | IC50 | 110 nM
COc1ccc(Cc2ccc(OCCN3CCCC3)cc2)cc1F | recombinant human LTA4 hydrolase (rhLTA4H) (Homo sapiens) | IC50 | 80 nM
O=C(O)C1CCN(CCOc2ccc(Cc3ccccc3)s2)CC1 | recombinant human LTA4 hydrolase (rhLTA4H) (Homo sapiens) | IC50 | 860 nM

###

- system name: recombinant human LTA4 hydrolase (rhLTA4H) (Homo sapiens)
- test: Recombinant human LTA4 hydrolase assay for LTA4 hydrolase inhibitor activity
- experimental context: Recombinant Human LTA4 Hydrolase Assay IC50 LTA4H, recombinant hLTA4H
quantity kind: log10 IC50 (log10 of the value in nM)

compound | quantity kind | measured
CCOC(=O)C1CCN(CCOc2ccc(Cc3cccc(F)c3)cc2)CC1 | log10 IC50 | 3.40
c1ccc(Cc2ccc3c(c2)CC(Cn2nnc4cnccc42)O3)cc1 (stereo not drawn) | log10 IC50 | 3.85
c1ccc(Cc2ccc(OCCn3cnc4cncnc43)cc2)cc1 | log10 IC50 | 2.86
O=c1[nH]c(C2CCCN(CCOc3ccc(Cc4ccccc4)cc3)C2)no1 (stereo not drawn) | log10 IC50 | 2.91
CCOC(=O)C1CCN(CCOc2ccc(Cc3ccccc3)s2)CC1 | log10 IC50 | 4.77
COc1ccc(Cc2ccc(OCCN3CCC(C(N)=O)CC3)cc2)cc1F | log10 IC50 | 3.18
c1ccc(Cc2ccc(OCCNC3CCCC3)cc2)cc1 | log10 IC50 | 2.78
c1ccc2cc(COc3ccc(OCCN4CCCC4)cc3)ccc2c1 | log10 IC50 | 2.54
c1ccc(Oc2ccc(OCCCn3cnc4ncccc43)cc2)cc1 | log10 IC50 | 2.74

Values were extracted from patent US6506876B1.
